# System: SF-295 CNS
# Assay text: NCI-60 one-dose screen, 48 h (100 = growth as untreated, 0 = no growth, -100 = all killed)
# Condition label: 10 µM unless noted
This is part of a sample that, as a whole, favours compounds with a hit. Of some 83,000 tested, about 20% had one in any assay.
Observed property: growth (%)
Response body: numeric value in %, unit text excluded.

Below, each entry is followed by its recorded growth result.
O=Nc1ccc2ccccc2c1O; 83
CC(=O)OC1CC2CCC1(C)C2(C)C (configuration not stated); 94.5

Output growth of "COC(=O)Nc1nc2ccc(C3(c4ccc(F)cc4)OCCO3)cc2[nH]1"
4.04

Report growth for "Cc1cc2nc(CC(=O)c3ccncc3)c(=O)[nH]c2cc1C"
92

Give reported growth value for COc1ccc2c(c1OC)OCC(CN(C)C)C2=O (configuration not stated)
96.2
